Target Under Test: CD117 on Kasumi-1 cells and on primary human CD34+ bone marrow cells (human), P10721
Assay Info: cell-based or functional assay
Readout Kind: % Efficacy, in vitro hCD34 cell killing assay
Answers without a unit are incomplete; give the number and then its unit.

The binder listed as CK6-SET0207 (antibody, V domains shown, here or on the partner: SET0207 payload ('Non-cleavable natural') conjugated, Fc modification D265C H435A, DAR 2.0) VH: QVQLVQSGAAVKKPGESLKISCKGSGYRFTSYWIGWVRQMPGKGLEWMGIIYPGDSDTRYSPSFQGQVTISAGKSISTAYLQWSSLKASDTAMYYCARHGRGYNGYEGAFDIWGQGTMVTVSS VL: AIQLTQSPSSLSASVGDRVTITCRASQGISSALAWYQQKPGKAPKLLIYDASSLESGVPSRFSGSGSGTDFTLTISSLQPEDFATYYCQQFNSYPLTFGGGTKVEIK has a reported % Efficacy, in vitro hCD34 cell killing assay of 9.18%
